Reference for the values: patent EP4339209A1

- tested-system: recombinant human GITR (Cat No. 13643-H08H, Lot No. LC12JA2509, Sino Biological) (human) (UniProt Q9Y5U5)
- assay-text: SPR Biacore 8K, multi-cycle kinetics, purified IgG captured on Protein A, GITR as analyte
measurement-type: pKd
Numbers only, as −log10 of the molar value.

Worked set:
| binder | pKd |
| --- | --- |
| anti-GITR 51B VH0/VL0 chimeric antibody (human IgG1, kappa) (antibody, V domains shown, Chimeric antibody; also called VH0/Vk0; 51B VH0/Vk0) VH: QVQLQQSGAELMKPGASVKLSCKTTGYRFTGYWIEWVKQRPGHGLEWIGEILPGSGATYYSENFKGKATFTADTSSNTAYMQVSSLTTGDSAIYYCARKGGYYAMDYWGQGTSVTVSS VL: QIVLTQSPAIMSASLGERVTMTCTASSSVSSSYFHWYQQKPGSSPKLWIYSTSNLASGVPARFSGSGSGTSYSLTVSSLEAEDAATYYCHLYHRSPRTFGGGTTLDIKR | 9.24 |
| anti-GITR 51B VH3/VL1 humanized antibody (human IgG1, kappa) (antibody, V domains shown) VH: QVQLVQSGAEVKKPGASVKVSCKTTGYRFTGYWIEWVRQPPGKGLEWIGEILPGSGATYYSENFKGKVTITADTSTDTAYMELSSLRSEDTAIYYCARKGGYYAMDYWGQGTLVTVSS VL: QIVLTQSPAIMSASLGERVTMSCTASSSVSSSYFHWYQQKPGSAPKLWIYSTSNLASGVPDRFSGSGSGTDYTLTVSSLQAEDVATYYCHLYHRSPRTFGGGTTVDIKR | 9.22 |

From here, focus on the item given below.
Query: Entry anti-GITR 51B VH3/VL5 humanized antibody (human IgG1, kappa) (antibody, V domains shown) VH: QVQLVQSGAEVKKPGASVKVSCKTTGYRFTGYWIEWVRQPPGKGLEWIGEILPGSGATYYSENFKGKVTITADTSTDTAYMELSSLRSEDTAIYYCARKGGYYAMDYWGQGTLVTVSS VL: EIVLTQSPATLSLSPGERATLSCTASSSVSSSYFHWYQQKPGKAPKLWIYSTSNLESGVPDRFSGSGSGTDYTLTISSLQAEDVATYYCHLYHRSPRTFGGGTKVEIKR : reported pKd = ?
Result: 9.11
